Target sequence: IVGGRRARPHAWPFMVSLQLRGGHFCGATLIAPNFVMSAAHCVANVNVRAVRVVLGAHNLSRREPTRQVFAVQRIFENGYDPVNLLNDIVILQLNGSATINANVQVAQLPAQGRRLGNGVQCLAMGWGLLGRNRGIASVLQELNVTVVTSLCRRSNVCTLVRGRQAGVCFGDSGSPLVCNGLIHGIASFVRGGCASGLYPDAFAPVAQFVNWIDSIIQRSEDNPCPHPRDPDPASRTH
pKi: −log10 of the molar value.
measurement.name: pKi

(1) COc1cc(C(C)C)c2c(c1)S(=O)(=O)N(COC(=O)c1c(Cl)ccc(OCCN3CCOCC3)c1Cl)C2=O
(2) COc1cc(C(C)C)c2c(c1)S(=O)(=O)N(Cn1nnc(S(=O)(=O)C(C)(C)C)c1S(=O)(=O)C(C)(C)C)C2=O
# query: argmin of pKi over 1 and 2 Answer with the label corresponding to your selection.
2

* * *

# procedure.text: pKa by ultraviolet spectrophotometric determination in water
# Format: physicochemical
measurement.name: pKa

(a) Sc1nnnn1-c1ccccc1
(b) NC(=O)c1nn[nH]c1C(N)=O [1,2,3-triazole-4,5-dicarboxamide]
Between these two entries, a and b , state which has the higher pKa. Let me know the label of the one you choose.
b

* * *

# procedure.text: pKa determination by titration in water
# Assay type: physicochemical
measurement.name: pKa

(A) N#Cc1nn[nH]c1C#N
(B) COC(=O)c1nn[nH]c1C(=O)OC
Please choose the item with the lower pKa value from this pair: A and B Kindly give the label for the entry you pick.
A
